Molecular target: Human Calpain 1/NS1 (Homo sapiens, UniProt P07384)
Sequence (P07384 whole entry): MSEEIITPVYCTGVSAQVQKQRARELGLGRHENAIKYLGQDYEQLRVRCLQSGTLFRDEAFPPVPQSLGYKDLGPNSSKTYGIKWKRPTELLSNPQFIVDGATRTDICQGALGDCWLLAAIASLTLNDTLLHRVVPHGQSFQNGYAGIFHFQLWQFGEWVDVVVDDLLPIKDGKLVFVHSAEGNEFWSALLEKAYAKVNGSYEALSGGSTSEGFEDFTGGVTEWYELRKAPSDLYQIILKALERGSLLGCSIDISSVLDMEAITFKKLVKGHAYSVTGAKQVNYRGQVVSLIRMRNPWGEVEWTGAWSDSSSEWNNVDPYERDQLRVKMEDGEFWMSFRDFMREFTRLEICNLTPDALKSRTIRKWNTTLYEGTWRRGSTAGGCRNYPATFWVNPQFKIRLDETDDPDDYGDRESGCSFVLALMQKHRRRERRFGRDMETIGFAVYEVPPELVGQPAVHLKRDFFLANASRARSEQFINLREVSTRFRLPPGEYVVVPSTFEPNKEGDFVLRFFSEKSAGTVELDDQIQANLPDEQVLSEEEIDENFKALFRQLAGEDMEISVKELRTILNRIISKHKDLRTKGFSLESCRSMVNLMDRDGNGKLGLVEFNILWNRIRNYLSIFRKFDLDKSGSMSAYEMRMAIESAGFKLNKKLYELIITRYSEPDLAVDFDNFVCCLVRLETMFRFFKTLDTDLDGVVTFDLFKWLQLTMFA
Sequence (P04632 whole entry partner): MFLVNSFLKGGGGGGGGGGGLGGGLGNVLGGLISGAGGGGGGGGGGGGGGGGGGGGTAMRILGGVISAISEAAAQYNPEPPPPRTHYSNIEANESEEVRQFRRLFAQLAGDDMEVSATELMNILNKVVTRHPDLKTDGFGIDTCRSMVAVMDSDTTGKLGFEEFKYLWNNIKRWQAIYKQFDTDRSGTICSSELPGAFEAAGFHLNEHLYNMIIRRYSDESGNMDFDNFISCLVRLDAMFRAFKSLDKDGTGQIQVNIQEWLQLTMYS
Assay: Calpain inhibition continuous fluorescence (FRET) assay, Human Calpain 1/NS1
Type: biochemical
Conditions: read-out: Human Calpain 1/NS1 IC50
// IC50 lookup, one value per entry

Below: 5 compounds and their reported IC50.
Cn1cc(C(=O)NC(Cc2ccccc2)C(=O)C(N)=O)c(-c2c(F)cccc2F)n1 (stereo not shown)    < 3 µM
NC(=O)C(=O)C(Cc1ccccc1)NC(=O)c1nsnc1-c1cccc2c1OCO2 (stereo not shown)    < 3 µM
Cn1cc(C(=O)N[C@H](C=O)Cc2ccccc2)c(-c2cccc(F)c2)n1    < 3 µM
CN(C)C(=O)CNC(=O)C(=O)[C@H](Cc1ccccc1)NC(=O)c1cn(C)nc1-c1ccccc1    < 3 µM
NC(=O)C(=O)C(Cc1ccccc1)NC(=O)c1nsnc1Cl (stereo not shown)    < 3 µM

**Q:** // map Cn1cc(C(=O)N[C@@H](Cc2ccccc2)C(=O)C(=O)NCc2ncco2)c(-c2ccccc2)n1 to recorded IC50 (system: Human Calpain 1/NS1 (Homo sapiens, UniProt P07384))
**A:** < 3 µM

**Q:** And what about the compound Cc1nc(-c2cccc(F)c2)c(C(=O)N[C@H](C=O)Cc2ccccc2)o1 ?
**A:** < 3 µM

**Q:** And what about the compound NC(=O)C(=O)C(Cc1ccccc1)NC(=O)c1nsnc1-c1cccc(COCc2ccccc2)c1 (stereo not shown) ?
**A:** < 3 µM

**Q:** And what about the compound Cn1cc(C(=O)NC(Cc2ccccc2)C(=O)C(N)=O)c(-c2cccc3c2OCO3)n1 (stereo not shown) ?
**A:** < 3 µM

**Q:** And what about the compound COc1cccc(-c2nn(C)cc2C(=O)NC(Cc2ccccc2)C(=O)C(N)=O)c1F (stereo not shown) ?
**A:** < 3 µM

**Q:** And what about the compound Cl.Cn1cc(C(=O)NC(Cc2ccccc2)C(=O)C(N)=O)c(-c2cccc(F)c2)n1 (stereo not shown) [Compound 485, hydrochloride] ?
**A:** < 3 µM

**Q:** And what about the compound Cn1cc(-c2nn(C)cc2C(=O)NC(Cc2ccccc2)C(=O)C(N)=O)cn1 (stereo not shown) ?
**A:** < 3 µM

**Q:** And what about the compound Cc1nc(-c2cccc3c2OCO3)c(C(=O)NC(Cc2ccccc2)C(=O)C(N)=O)o1 (stereo not shown) ?
**A:** < 3 µM

**Q:** And what about the compound COCCOCCNC(=O)C(=O)[C@H](Cc1ccccc1)NC(=O)c1cn(C)nc1-c1ccccc1 ?
**A:** < 3 µM

**Q:** And what about the compound O=C(NC1CC1)C(=O)C(Cc1ccccc1)NC(=O)c1nsnc1-c1ccccc1 (stereo not shown) ?
**A:** < 3 µM

**Q:** And what about the compound Cn1cc(C(=O)NC(Cc2cccc(C(F)(F)F)c2)C(=O)C(N)=O)c(-c2ccccc2F)n1 (stereo not shown) ?
**A:** < 3 µM

**Q:** And what about the compound Cn1ncc(C(=O)NC(Cc2ccccc2)C(=O)C(N)=O)c1Cc1ccccc1 (stereo not shown) ?
**A:** 3 to 10 µM

**Q:** And what about the compound Cc1ccc(C)c(-c2nn(C(F)F)cc2C(=O)NC(Cc2ccccc2)C(=O)C(N)=O)c1 (stereo not shown) ?
**A:** < 3 µM

**Q:** And what about the compound NC(=O)C(=O)C(Cc1ccccc1)NC(=O)c1cn(C(F)F)nc1-c1ccc2cnccc2c1 (stereo not shown) ?
**A:** < 3 µM
